Data origin: PubChem BioAssay AID743279

activity change by entry:
protocol.summary: qHTS for Inhibitors of Inflammasome Signaling: IL-1-beta AlphaLISA Primary Screen; also: % is scaled to controls: 0 for no effect and ±100 for the full control effect
applied.conditions: THP-1 LPS/ATP IL-1B secretion, 16 h; at 57.5 µM, active compounds read low
Hit rate of the full screen: of about 360,000 compounds, about 17,000 (4.7%) were called active. About 5% were inconclusive and are not listed. The sample holds actives, similar compounds and a random draw of the others, so the mix is not that of the screen.
observation.type: activity change (%)

molecule	measured.number
Cc1ccccc1CSc1nnc(-c2ccccn2)n1N	-29.8
CN1C(c2ccc(F)cc2)=CS/C1=C(/C#N)c1nnc2n1-c1ccccc1SC2	-68.6
Cc1ccc(S(=O)(=O)N2C[C@H]3C(=O)C[C@@H](c4cccc5ccccc45)N(S(=O)(=O)c4ccc(C)cc4)[C@H]3C[C@H]2c2ccc(Cl)cc2)cc1	0.625
CSc1ncnc2c1ncn2CC(=O)C1CCC2C3CCC4=CC(=O)CCC4(C)C3CCC12C (stereo not given)	-64.8
NC1=NC(=O)C2(COC(c3ccccc3Cl)OC2)S1 (stereo not given)	-5.39
CCOc1ccc(C(C)=O)cc1COC(=O)CN1C(=O)NC2(CCCC2)C1=O	-1.02
CCOC(=O)C1CCCN(C(=O)C2CCN(S(=O)(=O)c3ccc(Cl)c(C(F)(F)F)c3)CC2)C1 (stereo not given)	16.1
CCOC(=O)c1c(-c2ccccc2)oc2cc(Br)c(O)cc12	0
CCOC(=O)c1c(-c2ccccc2)oc2ccc(OCC(=O)NN)cc12	-28.6
CNS(=O)(=O)c1ccc2c(c1)[nH]c(=S)n2C	-25

* * *

protocol.summary: qHTS for Inhibitors of Inflammasome Signaling: IL-1-beta AlphaLISA Primary Screen
applied.conditions: THP-1 LPS/ATP IL-1B secretion, 16 h; at 57.5 µM, active compounds read low
About 17,000 (4.7%) of roughly 360,000 compounds were called active. Roughly 5% stayed inconclusive and do not appear here. The list comes from a sample in which actives are over-represented; it also holds close analogues and randomly drawn compounds.
observation.type: activity change (%)

molecule	measured.number
CCN(CC)CCNC(=O)C1c2ccccc2C(=O)N(C)C1c1cn(C)c2ccccc12 (stereo not drawn)	6.05
CCOCCCN(C)C1CCN(C(=O)c2oc3ccccc3c2NC(=O)Cc2cccc([N+](=O)[O-])c2)CC1	-15.5
COc1cccc(CN(C)CC(=O)Nc2ccccc2C(=O)Nc2ccccc2)c1	58.1
COc1ccc(-c2ccc(C(=O)NC(C)C)c3occc23)c(C)c1	-6.78
COc1cccc(-c2nn(-c3ccccc3)cc2/C=C(\C#N)C(=O)NCCCn2ccnc2)c1	-84
COc1cc(OC)cc(C(=O)NCCCn2ccnc2)c1	20.1
CCN1CCC2(CC1)N=C(c1ccc(F)cc1)C(=S)N2C(=O)c1ccc(C)cc1	-115
COC1=CC(=O)OC(c2ccc(OC)cc2)C1 (stereo not drawn)	-17.1
CCN1CCN(C(=O)CSc2ccc(C)cc2)CC1	-5.59
COCC(=O)Nc1c(C(=O)N2CCCC2)oc2ccccc12	-21
C[C@H]1CN([C@@H](C)CO)C(=O)CCCn2nncc2CO[C@@H]1CN(C)S(=O)(=O)c1cccc(C#N)c1	22.7
Cc1ccc(S(=O)(=O)N[C@H]2CCC[C@@H]2O)cc1	6.2
Cc1ccccc1C(OCC(O)CN1CCCCC1CCO)c1ccccc1 (stereo not drawn)	-10.1
Cc1cccc(OCC(=O)Nc2ccc(NC(=O)c3ccco3)c(C)c2)c1	-0.614
CC(C)Cc1nnc(NC(=O)CCc2ccccc2)s1	8.78
COC(=O)CSc1nnc(NC(=O)CCc2ccccc2)s1	12.3
O=C1CSC(=S)N1c1ccc(Cl)c(Cl)c1	7.49
O=C(c1cc(COc2ccc(F)cc2F)on1)N1CCOCC1	4.05
COc1ccc(NC(=O)c2ccco2)cc1NC(=O)c1ccc(C#N)cc1F	52.7
COc1ccc(C=C2CCC3C(CCCC34OCCO4)C2=O)cc1 (stereo not drawn)	-24.6
Cc1ccc(SCC(=O)N2CCN(c3ccc(F)cc3)CC2)cc1	-12.4
O=C1NC(c2ccccc2)Cc2ccncc21 (stereo not drawn)	-2.81
CCOCCCN(C)C1CCN(C(=O)c2oc3ccccc3c2NC(=O)COc2cccc(C)c2)CC1	-84

* * *

protocol.summary: qHTS for Inhibitors of Inflammasome Signaling: IL-1-beta AlphaLISA Primary Screen
applied.conditions: THP-1 LPS/ATP IL-1B secretion, 16 h; at 57.5 µM, active compounds read low
The whole screen tested about 360,000 compounds, of which about 17,000 (4.7%) were called active. About 5% were inconclusive and are not listed. This is one part of a sample in which actives are shown more often than they occur.

compound	activity change [%]
CCOC(=O)c1c(NC(=O)COC(=O)c2ccc(S(=O)(=O)C(F)F)cc2)sc(C(=O)N(C)C)c1C	-22
CCc1nc2ccc(C(=O)N(C)Cc3ccco3)cn2c1N(C)C(=O)Cc1ccccc1	-0.908
CCN(CC)CCOC(=O)c1ccc(NC(=O)CNC(=O)c2ccccc2)cc1	7.44
Cc1noc(C)c1C(=O)N1CCC1(C)C(=O)NS(=O)(=O)c1ccc(C#N)cc1 (stereo not given)	-5.56
CCN(CC)CCNC(=O)c1ccc(NC(=O)c2c(F)cccc2Cl)cc1	-73.3
CCc1nc(C)ccc1OCC(=O)N(CC)CC	6.9
COc1ccc(NC(=O)C(=O)NCC(c2ccco2)N2CCc3ccccc3C2)cc1 (stereo not given)	5.37
CC(=O)c1c(C)[nH]c(C(=O)OCC(=O)Nc2c(C)n(C)n(-c3ccccc3)c2=O)c1C	30.6
CC1(C(=O)Nc2ccc3c(c2)OCCO3)CCN1C(=O)Cc1cc(F)ccc1F (stereo not given)	-2.62
COC(=O)c1ccc2nc(-c3ccccc3)c(Cc3ccc(OC)cc3C)n2c1	-3.04

* * *

activity change by entry:
protocol.summary: qHTS for Inhibitors of Inflammasome Signaling: IL-1-beta AlphaLISA Primary Screen
applied.conditions: THP-1 LPS/ATP IL-1B secretion, 16 h; at 57.5 µM, active compounds read low
The campaign covered roughly 360,000 compounds. About 17,000 (4.7%) were called active. Inconclusive results (about 5%) are left out. The entries come from a sample that favours actives as a whole.
observation.type: activity change (%)

entry.smiles	measured.number
Cc1ccc(S(=O)(=O)N2CCN(C(=O)COC(=O)/C=C/c3cccc(Cl)c3)CC2)c(C)c1	23.3
CC(C=Cc1ccccc1)=NNS(=O)(=O)c1ccc([N+](=O)[O-])cc1	-3.19
COc1cc(/C=C/CNC[C@H]2O[C@@H](n3cnc(C(N)=O)n3)[C@H](O)[C@@H]2O)ccc1O	-17.5
COC(=O)c1ccc2nc(-c3ccc(F)cc3)c(Cc3ccc(C)cc3)n2c1	14.8
CC(=O)N(Cc1cc(=O)[nH]c2ccccc12)c1ccc(C)cc1C	1.3

* * *

activity change by entry:
protocol.summary: qHTS for Inhibitors of Inflammasome Signaling: IL-1-beta AlphaLISA Primary Screen
applied.conditions: THP-1 LPS/ATP IL-1B secretion, 16 h; at 57.5 µM, active compounds read low
The whole screen tested about 360,000 compounds, of which about 17,000 (4.7%) were called active. Not shown: some 5% with an inconclusive outcome. The full list was thinned out, with actives kept by preference.
observation.type: activity change

compound	result
CCC(C(=O)Nc1c(C)cccc1C)n1c(-c2cc(C)cs2)nc2ccccc21 (stereo not given)	-9.28% (inactive)
CCCCN(C=O)c1c(CC)nc2c(OCc3ccccc3C(=O)OC)cccn12	0% (inactive)
CC(=O)CC[C@@H](C)O[C@@H]1OC(C)[C@H](O)CC1O (stereo not given in full)	29.3% (inactive)
CCCCN(C=O)c1c(CC)nc2c(OCCC3CCCCC3)cccn12	-56.6% (active)
CCOc1ccc(C(=O)Nc2c3c(nn2-c2ccccc2)CS(=O)(=O)C3)cc1	12.2% (inactive)

* * *

protocol.summary: qHTS for Inhibitors of Inflammasome Signaling: IL-1-beta AlphaLISA Primary Screen
applied.conditions: THP-1 LPS/ATP IL-1B secretion, 16 h; at 57.5 µM
The campaign covered roughly 360,000 compounds. About 17,000 (4.7%) were called active. Not shown: some 5% with an inconclusive outcome. No stated cut-off is given here; in the data, active means activity change below about -50%; inconclusive means mostly about -30% to -49%; inactive means weaker than that. What follows is part of a selection rich in actives, with near analogues and random picks from the rest.
Outcomes: active, inactive

compound	class.assignment
CC(C)c1cc(C(=O)N(C)C2CCCN(Cc3ccccc3F)C2)n(C)n1 (stereo not given)	inactive
CN(CCCNC(=O)CN1C(=O)CC(C)(C)S(=O)(=O)c2ccccc21)C1CCCCC1	inactive
CCn1c2ccccc2c2cc(NC(=O)COC(=O)c3ccccc3Br)ccc21	inactive
COc1ccc(-c2nn(-c3ccccc3)cc2CN2CCCO2)c(F)c1	inactive
O=C(Cn1ccc2cc(S(=O)(=O)N3CCCC3)ccc21)NCc1ccccc1	inactive
CCn1c2ccccc2c2cc(NC(=O)CNC)ccc21	active
O=C1CC(c2ccccc2)C(=O)N2C(=O)CC(c3ccccc3)C(=O)N12 (stereo not given)	inactive
CCn1c2ccccc2c2cc(NC(=O)C/C(C)=N/NC(=O)c3ccccc3N)ccc21	inactive
COc1ccc([C@H]2N[C@]3(CCCN(Cc4ccco4)C3=O)[C@H]3C(=O)N(C)C(=O)[C@@H]23)cc1	inactive
COC(=O)Cn1cc(/C=C/[N+](=O)[O-])c2ccccc21	inactive
